For each entry below, report its MFC value.
- Test system: Candida tropicalis
- protocol: Fungicidal activity against Candida tropicalis ATCC 750 incubated at 37 degC for 48 hrs by broth dilution method
- Format: functional
- assay setup: ATCC 750, 48 h

Data request: Please provide the recorded MFC for C/C=C/c1ccc(OCc2cn(Cc3ccccc3)nn2)c(OC)c1 , tested on Candida tropicalis.
Data returned: > 1000 µg/mL

Data request: Hi! What's the reported MFC for COc1cc(/C=C/C(=O)O)ccc1O [FERULATE] on Candida tropicalis?
Data returned: > 1000 µg/mL

Data request: Recall the recorded MFC for CC(C)c1ccc(COCc2cn(Cc3ccccc3)nn2)cc1 with Candida tropicalis and state it.
Data returned: > 1000 µg/mL

Data request: // lookup MFC | system=Candida tropicalis | key= COc1cc(/C=C/C(=O)O)ccc1OCc1cn(Cc2ccccc2)nn1
Data returned: > 1000 µg/mL

Data request: Field: MFC (Candida tropicalis). Entry: COc1cc(C=O)ccc1OCc1cn(Cc2ccccc2)nn1
Data returned: 500 µg/mL

Data request: Fill in the recorded MFC for this compound, with Candida tropicalis as test system: COc1cc(C=O)ccc1O
Data returned: > 1000 µg/mL

Data request: Checklist item: MFC tested on Candida tropicalis, entry c1ccc(Cn2cc(COc3cccc4cccnc34)nn2)cc1 , value?
Data returned: 62.5 µg/mL
